Reference for the values: paper doi:10.64898/2025.12.01.691523v1

# MEASURED ON: AcFtnHCH (Anopheles culicifacies)
# Sequence (A0A182M0V3 21-216): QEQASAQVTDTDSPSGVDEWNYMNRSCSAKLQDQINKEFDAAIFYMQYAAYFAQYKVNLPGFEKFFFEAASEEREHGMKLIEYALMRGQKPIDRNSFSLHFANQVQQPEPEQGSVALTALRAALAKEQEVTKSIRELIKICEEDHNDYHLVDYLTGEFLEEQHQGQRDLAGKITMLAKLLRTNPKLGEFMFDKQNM
EXPERIMENTAL ENDPOINT: pKd
Keep it numeric: pKd is minus log10 of the concentration in mol/L.

Short answer for C=CC1=C(C)C2=Cc3c(C=C)c(C)c4[n]3[Fe]([Cl])[n]3c(c(C)c(CCC(=O)O)c3=CC3=NC(=C4)C(C)=C3CCC(=O)O)=CC1=N2 : pKd was 7.17

* * *

# MEASURED ON: bacterioferritin (Bftn)
# CONDITIONS: buffer not given in main text
EXPERIMENTAL ENDPOINT: Kd

Result for C=CC1=C(C)C2=Cc3c(C=C)c(C)c4[n]3[Fe]([Cl])[n]3c(c(C)c(CCC(=O)O)c3=CC3=NC(=C4)C(C)=C3CCC(=O)O)=CC1=N2 [hemin] , tested on bacterioferritin (Bftn), Kd: 136 nM
